- SYSTEM NAME: C-C chemokine receptor type 1 (Homo sapiens)
- ASSAY SUMMARY: Binding affinity to human CCR1
Binary call on IC50 with cut-off 7 nM: strictly below means Y, and equality or higher means N.

Illustrative cases are given below, each with its answer.
CC(C)[C@@H](NC(=O)c1cccnc1)C(=O)N1CC[C@](O)(c2ccc(Cl)cc2)C(C)(C)C1
Y
CC(C)[C@@H](NC(=O)C1CCCC1)C(=O)N1CCN(c2ccc(Cl)cc2)C(C)(C)C1
Y
CC(C)[C@@H](NC(=O)c1ccccc1Cl)C(=O)N1CC[C@](O)(c2ccc(Cl)cc2)C(C)(C)C1
Y
CC(C)[C@@H](NC(=O)c1ccncc1)C(=O)N1CC[C@](O)(c2ccc(Cl)cc2)C(C)(C)C1
N
CC(C)[C@@H](NC(=O)[C@@H]1CCC[C@H]1N)C(=O)N1CC[C@](O)(c2ccc(Cl)cc2)C(C)(C)C1
N
CN[C@]1(c2ccc(Cl)cc2)CCN(C(=O)[C@H](NC(=O)c2ccc(Cl)cc2)C(C)C)CC1(C)C
N
CC(C)[C@@H](NC(=O)[C@H]1CC[C@@H](N)C1)C(=O)N1CC[C@](O)(c2ccc(Cl)cc2)C(C)(C)C1 (mixture of isomers)
N
CC(C)[C@@H](NC(=O)[C@@H]1CCC[C@@H]1N)C(=O)N1CC[C@](O)(c2ccc(Cl)cc2)C(C)(C)C1
Y

Below: the item to evaluate.
is_below(IC50, 7 nM) for `CC(C)[C@@H](NC(=O)c1ccccc1C(=O)O)C(=O)N1CC[C@](O)(c2ccc(Cl)cc2)C(C)(C)C1` ?
N

---

- ASSAY SUMMARY: Metabolic stability in monkey liver microsomes assessed as compound remaining
- Type: ADME, Macaca mulatta, Microsome
- MEASUREMENT CONDITIONS: rhesus monkey
# label = label 1 if Stability >= 70% else label 0

Illustrative cases are given below, each with its answer.
CC(C)[C@@H](NC(=O)[C@@H]1CC[C@@H](O)C1)C(=O)N1CC[C@](O)(c2ccc(Cl)cc2)C(C)(C)C1 (mixture of isomers)
label 0
CC(C)[C@@H](NC(=O)[C@H]1CC[C@H](O)C1)C(=O)N1CC[C@](O)(c2ccc(Cl)cc2)C(C)(C)C1 (mixture of isomers)
label 0
CC(C)[C@@H](NC(=O)[C@@H]1CC[C@H](O)C1)C(=O)N1CC[C@](O)(c2ccc(Cl)cc2)C(C)(C)C1 (mixture of isomers)
label 0
CC(C)[C@@H](NC(=O)c1cccc(S(N)(=O)=O)c1)C(=O)N1CC[C@](O)(c2ccc(Cl)cc2)C(C)(C)C1
label 1

Below: the item to evaluate.
Test whether the compound `CC(C)[C@@H](NC(=O)[C@@H]1CCC[C@@H]1N)C(=O)N1CC[C@](O)(c2ccc(Cl)cc2)C(C)(C)C1` records Stability of 70% or higher.
label 1

---

- Tested on: Liver microsomes
- ASSAY SUMMARY: Metabolic stability in human liver microsomes assessed as compound remaining
- Assay type: ADME, Microsome
QUANTITY: Stability (%)
Give just the numeric value; % need not be written.

Example results:
CC(C)[C@@H](NC(=O)c1cccc(S(N)(=O)=O)c1)C(=O)N1CC[C@](O)(c2ccc(Cl)cc2)C(C)(C)C1
96
CC(C)[C@@H](NC(=O)[C@@H]1CC[C@@H](O)C1)C(=O)N1CC[C@](O)(c2ccc(Cl)cc2)C(C)(C)C1 (mixture of isomers)
98
CC(C)[C@@H](NC(=O)[C@@H]1CC[C@H](O)C1)C(=O)N1CC[C@](O)(c2ccc(Cl)cc2)C(C)(C)C1 (mixture of isomers)
43
CC(C)[C@@H](NC(=O)[C@@H]1CCC[C@H]1N)C(=O)N1CC[C@](O)(c2ccc(Cl)cc2)C(C)(C)C1
97
CC(C)[C@@H](NC(=O)c1cccc(C(=O)O)c1)C(=O)N1CC[C@](O)(c2ccc(Cl)cc2)C(C)(C)C1
100
CC(C)[C@@H](NC(=O)[C@H]1CC[C@H](O)C1)C(=O)N1CC[C@](O)(c2ccc(Cl)cc2)C(C)(C)C1 (mixture of isomers)
95

// next item, Stability requested
`CC(C)[C@@H](NC(=O)C1CCCC1)C(=O)N1CC[C@](O)(c2ccc(Cl)cc2)C(C)(C)C1` has a reported Stability of 47

---

- Test system: Liver
- ASSAY SUMMARY: Metabolic stability in mouse liver microsomes assessed as compound remaining
- Format: ADME, Microsome
Below is a list of entries, each paired with its recorded Stability value.
Give just the numeric value; % need not be written.

`CC(C)[C@@H](NC(=O)c1cccc(S(N)(=O)=O)c1)C(=O)N1CC[C@](O)(c2ccc(Cl)cc2)C(C)(C)C1` has a reported Stability of 99

CC(C)[C@@H](NC(=O)[C@@H]1CC[C@H](O)C1)C(=O)N1CC[C@](O)(c2ccc(Cl)cc2)C(C)(C)C1 (mixture of isomers) has a reported Stability of 60

CC(C)[C@@H](NC(=O)[C@@H]1CC[C@@H](O)C1)C(=O)N1CC[C@](O)(c2ccc(Cl)cc2)C(C)(C)C1 (mixture of isomers) has a reported Stability of 88

`CC(C)[C@@H](NC(=O)c1cccc(C(=O)O)c1)C(=O)N1CC[C@](O)(c2ccc(Cl)cc2)C(C)(C)C1` has a reported Stability of 100

`CC(C)[C@@H](NC(=O)C1CCCC1)C(=O)N1CC[C@](O)(c2ccc(Cl)cc2)C(C)(C)C1` has a reported Stability of 26

CC(C)[C@@H](NC(=O)[C@H]1CC[C@H](O)C1)C(=O)N1CC[C@](O)(c2ccc(Cl)cc2)C(C)(C)C1 (mixture of isomers) has a reported Stability of 90

---

- SYSTEM NAME: Nuclear receptor subfamily 1 group I member 2 (Homo sapiens, UniProt O75469)
- Sequence (O75469 whole entry): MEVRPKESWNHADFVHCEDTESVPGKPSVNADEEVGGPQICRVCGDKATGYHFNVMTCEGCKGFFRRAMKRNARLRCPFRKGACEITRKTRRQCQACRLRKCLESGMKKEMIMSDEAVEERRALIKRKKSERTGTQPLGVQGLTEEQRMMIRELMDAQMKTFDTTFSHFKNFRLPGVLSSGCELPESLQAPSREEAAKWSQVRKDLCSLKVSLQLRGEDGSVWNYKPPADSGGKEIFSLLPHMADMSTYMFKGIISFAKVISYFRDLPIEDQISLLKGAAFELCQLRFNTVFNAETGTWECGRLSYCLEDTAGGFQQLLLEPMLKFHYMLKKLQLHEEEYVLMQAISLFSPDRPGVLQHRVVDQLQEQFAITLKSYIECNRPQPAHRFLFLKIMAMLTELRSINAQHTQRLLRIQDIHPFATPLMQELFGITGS
- ASSAY SUMMARY: Induction of PXR (unknown origin)
QUANTITY: pEC50
Quick note: pEC50 means taking -log10 of the concentration in moles per liter.

CC(C)[C@@H](NC(=O)[C@@H]1CCC[C@@H]1O)C(=O)N1CC[C@](O)(c2ccc(Cl)cc2)C(C)(C)C1 (relative stereo) has a reported pEC50 of 5.85

`CC(C)[C@@H](NC(=O)CC(C)(C)O)C(=O)N1CC[C@](O)(c2ccc(Cl)cc2)C(C)(C)C1` has a reported pEC50 of 5.74

`CC(C)[C@@H](NC(=O)[C@@H]1CCC[C@@H]1N)C(=O)N1CC[C@](O)(c2ccc(Cl)cc2)C(C)(C)C1` has a reported pEC50 of 5.07

---

Below is a list of entries, each paired with its recorded pIC50 value.
- SYSTEM NAME: UniProt P32246
- Sequence (P32246 whole entry): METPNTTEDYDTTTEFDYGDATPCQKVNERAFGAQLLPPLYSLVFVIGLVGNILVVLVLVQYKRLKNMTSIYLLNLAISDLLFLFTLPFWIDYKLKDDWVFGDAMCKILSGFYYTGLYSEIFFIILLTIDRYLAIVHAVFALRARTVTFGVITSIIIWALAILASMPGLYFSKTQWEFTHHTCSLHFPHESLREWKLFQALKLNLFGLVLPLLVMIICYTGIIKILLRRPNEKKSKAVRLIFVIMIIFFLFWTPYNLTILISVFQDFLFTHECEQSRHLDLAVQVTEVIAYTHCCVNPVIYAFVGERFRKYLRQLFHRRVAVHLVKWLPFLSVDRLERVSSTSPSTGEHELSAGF
- ASSAY SUMMARY: Binding affinity to human CCR1
Quick note: pIC50 means taking -log10 of the concentration in moles per liter.

Example results:
CC(C)[C@@H](NC(=O)c1cccc(Cl)c1)C(=O)N1CC[C@](O)(c2ccc(Cl)cc2)C(C)(C)C1
8.00
CC(C)[C@@H](NC(=O)[C@@H]1CC[C@@H](N)C1)C(=O)N1CC[C@](O)(c2ccc(Cl)cc2)C(C)(C)C1 (mixture of isomers)
6.47
CC(C)[C@@H](NC(=O)Cc1ccncc1)C(=O)N1CC[C@](O)(c2ccc(Cl)cc2)C(C)(C)C1
8.92
CC(C)[C@@H](NC(=O)c1ccccn1)C(=O)N1CC[C@](O)(c2ccc(Cl)cc2)C(C)(C)C1
7.82
CC(C)[C@@H](NC(=O)CC(C)(C)O)C(=O)N1CC[C@](O)(c2ccc(Cl)cc2)C(C)(C)C1
8.28

`CC(C)[C@@H](NC(=O)c1ccc(F)c(O)c1)C(=O)N1CCC(c2ccc(Cl)cc2)CC1` has a reported pIC50 of 8.00

CC(C)[C@@H](NC(=O)[C@@H]1CC[C@H](O)C1)C(=O)N1CC[C@](O)(c2ccc(Cl)cc2)C(C)(C)C1 (mixture of isomers) has a reported pIC50 of 9.10

---

- SYSTEM NAME: C-C chemokine receptor type 1 (Homo sapiens)
- Sequence (P32246 whole entry): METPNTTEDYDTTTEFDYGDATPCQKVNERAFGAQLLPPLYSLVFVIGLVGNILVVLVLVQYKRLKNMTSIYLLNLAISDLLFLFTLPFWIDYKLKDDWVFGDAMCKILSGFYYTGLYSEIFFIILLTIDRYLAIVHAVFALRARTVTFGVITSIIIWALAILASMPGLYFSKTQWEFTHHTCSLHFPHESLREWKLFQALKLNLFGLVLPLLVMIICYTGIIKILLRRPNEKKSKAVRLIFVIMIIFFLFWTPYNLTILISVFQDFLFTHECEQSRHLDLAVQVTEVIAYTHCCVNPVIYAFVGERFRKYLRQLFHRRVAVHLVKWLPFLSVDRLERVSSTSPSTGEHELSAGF
- ASSAY SUMMARY: Antagonist activity at CCR1 in whole blood (unknown origin) assessed as inhibition of MIP1alpha-induced upregulation of beta2-integrin CD11b
QUANTITY: pIC50
Quick note: pIC50 means taking -log10 of the concentration in moles per liter.

Entry CC(C)[C@@H](NC(=O)[C@@H]1CC[C@@H](O)C1)C(=O)N1CC[C@](O)(c2ccc(Cl)cc2)C(C)(C)C1 (mixture of isomers) , tested on C-C chemokine receptor type 1 (Homo sapiens), has a reported pIC50 of 7.34

The measured values listed here are drawn from ChEMBL document CHEMBL2396549.
